System: HL-60
Experiment: NCI tumour cell line growth inhibition, 48 h
Activity calls are given as the source filed them. No stated cut-off is given here; in the data, active = GI50 up to about 1.1 µM and inactive = higher.
Log the outcome using a class from active, inactive

What did this assay record as the result for COc1cc2c(cc1OC)C(Cc1ccc(Oc3cc(CC4c5cc(OC)c(OC)cc5CCN4C)ccc3O)cc1)N(C)CC2 (configuration not stated) ?
inactive

What did this assay record as the result for CN(Cc1cnc2nc(N)nc(N)c2n1)c1ccc(C(=O)NC(CCC(=O)O)C(=O)O)cc1C(F)(F)F (configuration not stated) ?
active

What did this assay record as the result for "O=C1N(Cl)C(=O)C(c2ccc(Cl)cc2)(c2ccc(Cl)cc2)N1Cl" ?
inactive

What did this assay record as the result for "Cc1cc(C)nc(NS(=O)(=O)c2ccc(NN=c3c4ccccc4n(C)c4ccccc34)cc2)n1" ?
inactive

What did this assay record as the result for "COC(=O)C(Cc1cc(OC)c(OC)c(OC)c1)C(=O)OC" ?
inactive

What did this assay record as the result for Cc1ccc([N+](=O)[O-])cc1S(=O)(=O)Nc1ccc(C2=NOC(c3cccs3)C2)cc1 (configuration not stated) ?
inactive

What did this assay record as the result for "CCOC(=O)c1cn(CC)c2ccc3ccsc3c2c1=O" ?
inactive

What did this assay record as the result for "N#Cc1[nH]c(=O)n(-c2ccccc2)c1N" ?
inactive

What did this assay record as the result for CC1(C)OCC(C2OC3OC(C)(C)OC3C2N)O1 (configuration not stated) ?
inactive

What did this assay record as the result for "CCS(=O)(=O)CCn1c(=O)c2c(ncn2C)n(C)c1=O" ?
inactive

What did this assay record as the result for COC(=O)C1(Cc2ccccc2)Cc2c(C)ccc(C)c2C1=O (configuration not stated) ?
inactive

What did this assay record as the result for "COC(=O)c1cc(Cl)ccc1NC(=O)c1ccc([N+](=O)[O-])cc1" ?
inactive

What did this assay record as the result for "CCc1cccc(C(C)C)c1N1C(=O)C(=O)C(c2nc3ccccc3s2)C(=O)C1=O" ?
inactive

What did this assay record as the result for S=C1NC(c2ccccc2)=NC(Cc2ccccc2)(c2ccccc2)N1c1ccccc1 (configuration not stated) ?
inactive

What did this assay record as the result for CCCN1CN(C(C(=O)N[C@@H]2C(=O)N3C(C(=O)O)=C(C)CSC23)c2ccc(O)cc2)CSC1=S (some centres not stated) ?
inactive

What did this assay record as the result for "Cc1nc2nnc(C)n2c2c1C(=O)Nc1ccccc1N2" ?
inactive

What did this assay record as the result for "c1cnc2c(c1)Nc1cnncc1S2" ?
inactive

What did this assay record as the result for "COC(=O)/C=C/C(=O)Nc1cc(Cl)c(Cl)cc1CC(=O)N(C)[C@H]1CCCC[C@@H]1N1CCCC1" ?
inactive

What did this assay record as the result for C/C(=N\NC(=N)N)C(CN1CCOCC1)C(c1ccccc1)c1c(O)c2ccccc2oc1=O (configuration not stated) ?
inactive

What did this assay record as the result for "C#Cc1cc(-c2nc3ccccc3s2)ccc1N" ?
inactive

What did this assay record as the result for "O=C(NNCC(F)(F)F)c1ccncc1" ?
inactive

What did this assay record as the result for "O=C1CSC(/C(=C\c2ccc(Cl)cc2)c2nc3ccccc3[nH]2)=N1" ?
inactive

----------
System: NCI-H23
Experiment: NCI tumour cell line growth inhibition, 48 h
Calls of active or inactive are those of the source. Rule as the data show it: active = GI50 up to about 1.1 µM and inactive = higher. Starred links: 1 amine or outer side, 2 acyl side, 3 side chain; linkers in the order of their positions; H or OH if unused. Residues, ends and D or L forms follow the SMILES beside them. *: point of attachment. γGlu = O=C(O)[CH](CCC(=O)[*:2])N[*:1]; NHOH = ON*
Log the outcome using a class from active, inactive

What did this assay record as the result for COc1cc2c(cc1OC)C(Cc1ccc(Oc3cc(CC4c5cc(OC)c(OC)cc5CCN4C)ccc3O)cc1)N(C)CC2 (stereo unspecified) ?
inactive

What did this assay record as the result for COC(=O)Cc1c2n(c3ccccc13)C(=O)N1c3ccccc3C(CC(=O)OC)C21 (stereo unspecified) ?
inactive

What did this assay record as the result for "c1ccc2c(c1)nnn1c3cnccc3nc21" ?
inactive

What did this assay record as the result for "CC(C)Oc1cccc(N2C(Nc3ccccc3)=Nc3ccncc3S2(=O)=O)c1" ?
inactive

What did this assay record as the result for "CC(C)(CN1CCOCC1)C(=O)/C=C/c1ccc(/C=C/C(=O)C(C)(C)CN2CCOCC2)cc1" ?
inactive

What did this assay record as the result for CCOC(=O)C(NC(=O)c1ccc(/N=N/N(C)C)cc1)C(C)C (stereo unspecified) ?
inactive

What did this assay record as the result for "O=C(c1ccccc1)c1ccc2[nH]c(-c3c(Cl)c(Cl)c(Cl)c(Cl)c3C(=O)N/N=C\C=C\c3ccccc3)nc2c1" ?
inactive

What did this assay record as the result for "COc1cc([C@@H]2c3cc(O)c(OC)cc3C=C(C(N)=O)[C@H]2C(N)=O)ccc1O" ?
inactive

What did this assay record as the result for O=C(O)CC(NC(=O)Nc1ccc([N+](=O)[O-])cc1)C(=O)Nc1ccc([N+](=O)[O-])cc1 (stereo unspecified) ?
inactive

What did this assay record as the result for "COC(=O)c1ccc(C(=O)OC)c2nc3cc(Cl)ccc3nc12" ?
inactive

What did this assay record as the result for "O=C(/C=C/c1cccs1)c1ccc(Cl)cc1" ?
inactive

What did this assay record as the result for "O=[N+]([O-])c1oc2ccc3ccccc3c2c1CCO" ?
inactive

What did this assay record as the result for COC(OC)C1OC(CO)C(n2cc(C)c(=O)[nH]c2=O)C1O (stereo unspecified) ?
inactive

What did this assay record as the result for "O=C(N/C(=C\c1cc(Cl)ccc1Cl)c1nc2c(O)nc(S)nc2[nH]1)c1ccccc1" ?
inactive

What did this assay record as the result for "NC1=Nc2ccccc2Sc2ccccc21" ?
inactive

What did this assay record as the result for CCOC(=O)CNC(=O)C(CCC(=O)NO)NC(=O)CCC(N)C(=O)O (stereo unspecified) (γGlu-Glu(NHOH)-Gly-OEt; configuration not given here) ?
inactive

What did this assay record as the result for "OCCN(CCO)c1ncnc2c1sc(=S)n2-c1ccccc1" ?
inactive

What did this assay record as the result for "CCOc1cc2c(cc1O)/C(=N\OC)C[C@@H]1[C@@H]2CC[C@]2(C)[C@@H](O)CC[C@@H]12" ?
active

What did this assay record as the result for "CCOC(=O)c1cn(CC)c2ccc3ccsc3c2c1=O" ?
inactive

What did this assay record as the result for "COc1c(CC(=O)c2ccccc2)c2ccccc2n1C(C)=O" ?
inactive

What did this assay record as the result for "Cc1c(C(=O)/C=C/c2ccccc2[N+](=O)[O-])[n+]([O-])c2ccccc2[n+]1[O-]" ?
inactive
